Kindly supply the reported abundance fitness values for the records listed here.
B1: Calcium-binding protein 2, residues 155 to 219; numbered along this chain, Q9NPB3 (parent)
chain: RELRDAFREFDTNGDGRISVGELRAALKALLGERLSQREVDEILQDVDLNGDGLVDFEEFVRMMS

# Variants of: B1
# assay-info: abundance fitness (aPCA) (normalised: wild type 0, dead -1); higher = more abundant; growth selection in yeast, the domain comes from the species named
# condition: Homo sapiens
Numbers only.

{"variant-description": "E2R", "abundance fitness": -0.128}

List abundance fitness for every entry below, keeping the order given.
1. E2Q
2. E2Y
3. S19W
4. T12S
5. S19R
6. V47M
7. L35T
8. G53E

-0.114
-0.306
-0.58
-0.035
-0.687
-0.303
0.028
-0.199

src = the Human Domainome abundance scans (Beltran et al. 2025)
